Reported pEC50 is given for each of the following molecules.
# Test system: recombinant NL4-3 virus (Renilla luciferase in nef, Gag P373S; NLRluc) in MT-2 cells
# TEST_DETAILS: whole plant or invertebrate
# Assay type: cell-based, HIV
# REPORTED_CONDITIONS: Renilla, NL43, luciferase activity in cells infected for 4-5 days with NLRluc recombinants, serial dilutions of inhibitor; class symbols (key in Table 1); read-out: EC50
pEC50: −log10 of the molar value.

Solved cases (3 shown):
MOLECULE	RESULT
C=C(C)[C@@H]1CC[C@]2(NCCNc3ccncc3)CC[C@]3(C)[C@H](CC[C@@H]4[C@@]5(C)CC=C(c6ccc(C(=O)O)cc6)C(C)(C)[C@@H]5CC[C@]43C)[C@@H]12	> 7.00
C=C(C)[C@@H]1CC[C@]2(NCc3csc(C)n3)CC[C@]3(C)[C@H](CC[C@@H]4[C@@]5(C)CC=C(c6ccc(C(=O)O)cc6)C(C)(C)[C@@H]5CC[C@]43C)[C@@H]12	> 7.00
C=C(C)[C@@H]1CC[C@]2(NC(=O)NC3(CN(CC)CC)CC3)CC[C@]3(C)[C@H](CC[C@@H]4[C@@]5(C)CC=C(c6ccc(C(=O)O)cc6)C(C)(C)[C@@H]5CC[C@]43C)[C@@H]12	> 7.00

Memo: `C=C(C)[C@@H]1CC[C@]2(NC(=O)NC(C)(C)CN3CCOCC3)CC[C@]3(C)[C@H](CC[C@@H]4[C@@]5(C)CC=C(c6ccc(C(=O)O)cc6)C(C)(C)[C@@H]5CC[C@]43C)[C@@H]12` , reported pEC50: > 7.00

Memo: `C=C(C)[C@@H]1CC[C@]2(NCC(=O)N(CC)CC)CC[C@]3(C)[C@H](CC[C@@H]4[C@@]5(C)CC=C(c6ccc(C(=O)O)cc6)C(C)(C)[C@@H]5CC[C@]43C)[C@@H]12` , reported pEC50: > 7.00

Memo: `C=C(C)[C@@H]1CC[C@]2(NC(=O)C(=O)N(C)C)CC[C@]3(C)[C@H](CC[C@@H]4[C@@]5(C)CC=C(c6ccc(C(=O)O)cc6)C(C)(C)[C@@H]5CC[C@]43C)[C@@H]12` , reported pEC50: > 7.00

Memo: C=C(C)[C@@H]1CC[C@]2(NC(=O)C(CC)NC3CCS(=O)(=O)C3)CC[C@]3(C)[C@H](CC[C@@H]4[C@@]5(C)CC=C(c6ccc(C(=O)O)cc6)C(C)(C)[C@@H]5CC[C@]43C)[C@@H]12 (stereo partly drawn) , reported pEC50: > 7.00

Memo: `C=C(C)[C@@H]1CC[C@]2(NCCN3CCN(S(=O)(=O)c4ccccc4)CC3)CC[C@]3(C)[C@H](CC[C@@H]4[C@@]5(C)CC=C(c6ccc(C(=O)O)cc6)C(C)(C)[C@@H]5CC[C@]43C)[C@@H]12` , reported pEC50: > 7.00

Memo: `C=C(C)[C@@H]1CC[C@]2(NC(=O)NCCC(=O)O)CC[C@]3(C)[C@H](CC[C@@H]4[C@@]5(C)CC=C(c6ccc(C(=O)O)cc6)C(C)(C)[C@@H]5CC[C@]43C)[C@@H]12` , reported pEC50: > 7.00
